# Test system: Human immunodeficiency virus 1
# experimental details: Induction of HIV1 NL4-3 virus replication in CEM-GFP cells
# Assay type: functional, organism-based
Calls of active or inactive are those of the source. No cut-off for these calls is given here.
Pick from active, inactive when you respond.

- smiles record: "COC(=O)CC[C@@H](C)[C@H]1CC[C@H]2[C@H]3[C@H]([C@H](N)C(=O)[C@]12C)[C@@]1(C)CC[C@@H](OC(C)=O)C[C@H]1C[C@H]3OC(C)=O"
  label value: "active"
- smiles record: "COC(=O)CC[C@@H](C)[C@H]1CC[C@H]2[C@@H]3[C@H](OC(C)=O)C[C@@H]4C[C@H](OC(C)=O)CC[C@]4(C)[C@H]3C[C@H](O)[C@]12C"
  label value: "inactive"

Field: next compound
[ask] Could you please tell me the result logged for `C[C@H](CCC(=O)O)[C@H]1CC[C@H]2[C@@H]3[C@H](O)C[C@@H]4C[C@H](O)CC[C@]4(C)[C@H]3C[C@H](O)[C@]12C` in this assay?
[reply] inactive
